Target: UniProtKB P56817
Assay: Inhibition of human BACE1 expressed in recombinant baculovirus-infected insect cells using rhodamine conjugated APP-based EVNLDAEFK as substrate after 60 mins by FRET analysis
Parameter Measured: pIC50
Notebook: values listed as pIC50 are -log10 of the concentration (mol/L).

Task: Using the record for CC(=O)Nc1ccc(S(=O)(=O)NCC(=O)Nc2ccc(C)cc2C)cc1 , state its measured pIC50.
Output: 5.10

* * *

Listed here: items and their measured inhibition.
Biological target: Beta-secretase 1 (Homo sapiens, UniProt P56817)
Sequence (P56817 whole entry): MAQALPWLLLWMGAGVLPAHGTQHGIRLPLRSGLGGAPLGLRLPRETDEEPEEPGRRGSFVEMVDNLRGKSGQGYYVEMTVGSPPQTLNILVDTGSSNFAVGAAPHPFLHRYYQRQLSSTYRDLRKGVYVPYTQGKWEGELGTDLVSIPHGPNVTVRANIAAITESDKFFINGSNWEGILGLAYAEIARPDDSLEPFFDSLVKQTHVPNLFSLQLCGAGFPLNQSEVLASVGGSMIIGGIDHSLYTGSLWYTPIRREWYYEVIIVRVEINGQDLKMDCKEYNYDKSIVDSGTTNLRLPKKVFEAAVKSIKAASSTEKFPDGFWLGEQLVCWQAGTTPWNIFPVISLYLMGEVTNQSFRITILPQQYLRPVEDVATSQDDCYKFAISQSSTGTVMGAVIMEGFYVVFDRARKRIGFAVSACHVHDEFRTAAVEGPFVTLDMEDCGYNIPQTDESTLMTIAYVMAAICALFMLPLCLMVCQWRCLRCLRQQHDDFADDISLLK
Assay: Inhibition of human BACE1 expressed in recombinant baculovirus-infected insect cells using rhodamine conjugated APP-based EVNLDAEFK as substrate at 10 uM after 60 mins by FRET analysis
Please respond with the number in % and leave the unit unwritten.

Task: Given O=C(CNS(=O)(=O)c1ccc([N+](=O)[O-])cc1)Nc1cccc(Cl)c1 , report its inhibition on Beta-secretase 1 (Homo sapiens, UniProt P56817).
Output: 17

Task: GET inhibition where system = Beta-secretase 1 (Homo sapiens, UniProt P56817) and item = Cc1ccc(NC(=O)CNS(=O)(=O)c2cccc([N+](=O)[O-])c2)c(C)c1
Output: 41

Others:
Task: Give measured inhibition for COc1ccc(S(=O)(=O)NCC(=O)Nc2ccccc2)cc1 (Beta-secretase 1 (Homo sapiens, UniProt P56817)).
Output: 28.6

Task: Provide inhibition, system Beta-secretase 1 (Homo sapiens, UniProt P56817), entry CC(=O)Nc1ccc(S(=O)(=O)NCC(=O)Nc2ccccc2)cc1
Output: 28.9

Task: # assay system Beta-secretase 1 (Homo sapiens, UniProt P56817): give inhibition of O=C(CNS(=O)(=O)c1ccc(Cl)cc1)Nc1cccc(Cl)c1
Output: 48.6

Task: Param request: inhibition | system Beta-secretase 1 (Homo sapiens, UniProt P56817) | item Cc1ccc(NC(=O)CNS(=O)(=O)c2ccccc2[N+](=O)[O-])c(C)c1
Output: 21.6

Task: Using Beta-secretase 1 (Homo sapiens, UniProt P56817) as the test system, report measured inhibition of Cc1ccc(S(=O)(=O)NCC(=O)Nc2ccc(C)cc2C)cc1 .
Output: 35

Task: Retrieve inhibition on Beta-secretase 1 (Homo sapiens, UniProt P56817); query Cc1ccc(NC(=O)CNS(=O)(=O)c2ccc([N+](=O)[O-])cc2)c(C)c1
Output: 9.49

Task: Recall the reported inhibition of Cc1ccc(S(=O)(=O)NCC(=O)Nc2ccc(Cl)cc2)cc1 on Beta-secretase 1 (Homo sapiens, UniProt P56817) and write it down.
Output: 25.3

Task: State inhibition on Beta-secretase 1 (Homo sapiens, UniProt P56817). Entry: O=C(CNS(=O)(=O)c1cccc([N+](=O)[O-])c1)Nc1cccc(Cl)c1
Output: 42.1

Task: Find inhibition for O=C(CNS(=O)(=O)c1ccccc1)Nc1cccc(Cl)c1 on Beta-secretase 1 (Homo sapiens, UniProt P56817) and write it down.
Output: 4.83

Task: Provide inhibition, recorded with Beta-secretase 1 (Homo sapiens, UniProt P56817), of O=C(CNS(=O)(=O)c1cccc([N+](=O)[O-])c1)Nc1ccc(Cl)cc1
Output: 29.5

Task: Report value: inhibition, system: Beta-secretase 1 (Homo sapiens, UniProt P56817), compound: Cc1ccccc1S(=O)(=O)NCC(=O)Nc1ccccc1
Output: 18.5

Task: Answer briefly: inhibition recorded on Beta-secretase 1 (Homo sapiens, UniProt P56817) for Cc1ccc(NC(=O)CNS(=O)(=O)c2ccc(Cl)cc2)c(C)c1
Output: 35.9

Task: For Beta-secretase 1 (Homo sapiens, UniProt P56817), give inhibition of the listed compound: COc1ccc(S(=O)(=O)NCC(=O)Nc2ccc(C)cc2C)cc1
Output: 28.4

Task: Find inhibition for COc1ccc(S(=O)(=O)NCC(=O)Nc2ccc(Cl)cc2)cc1 on Beta-secretase 1 (Homo sapiens, UniProt P56817) and write it down.
Output: 35.1

Task: State the measured inhibition (Beta-secretase 1 (Homo sapiens, UniProt P56817)) of O=C(CNS(=O)(=O)c1ccccc1[N+](=O)[O-])Nc1cccc(Cl)c1
Output: 17.5

Task: For Beta-secretase 1 (Homo sapiens, UniProt P56817), give inhibition of the listed compound: Cc1ccc(NC(=O)CNS(=O)(=O)c2ccccc2)c(C)c1
Output: 5.38

Task: State inhibition on Beta-secretase 1 (Homo sapiens, UniProt P56817). Entry: COc1ccc(S(=O)(=O)NCC(=O)Nc2cccc(Cl)c2)cc1
Output: 38.3

Task: Report inhibition under test system Beta-secretase 1 (Homo sapiens, UniProt P56817) for O=C(CNS(=O)(=O)c1ccc([N+](=O)[O-])cc1)Nc1ccc(Cl)cc1 .
Output: 9.89

Task: Provide measured inhibition on Beta-secretase 1 (Homo sapiens, UniProt P56817) for O=C(CNS(=O)(=O)c1cccc([N+](=O)[O-])c1)Nc1ccccc1 please.
Output: 42

Task: Using Beta-secretase 1 (Homo sapiens, UniProt P56817) as the test system, report measured inhibition of Cc1ccc(S(=O)(=O)NCC(=O)Nc2ccccc2)cc1 .
Output: 21.9

Task: Write down the reported inhibition (system: Beta-secretase 1 (Homo sapiens, UniProt P56817)) of O=C(CNS(=O)(=O)c1ccccc1)Nc1ccc(Cl)cc1
Output: 5.09

Task: Give inhibition for Cc1ccc(S(=O)(=O)NCC(=O)Nc2cccc(Cl)c2)cc1 tested on Beta-secretase 1 (Homo sapiens, UniProt P56817).
Output: 31.8

Task: Consider the compound CC(=O)Nc1ccc(S(=O)(=O)NCC(=O)Nc2cccc(Cl)c2)cc1 tested on Beta-secretase 1 (Homo sapiens, UniProt P56817); state its inhibition.
Output: 52.9

Task: Under Beta-secretase 1 (Homo sapiens, UniProt P56817): report inhibition of O=C(CNS(=O)(=O)c1ccc(Cl)cc1)Nc1ccc(Cl)cc1 .
Output: 34.8

Task: Please report inhibition with Beta-secretase 1 (Homo sapiens, UniProt P56817) for item O=C(CNS(=O)(=O)c1ccccc1[N+](=O)[O-])Nc1ccc(Cl)cc1 .
Output: 18.5
